The following molecules are listed with their measured inhibition values.
target: SARS-CoV-2 Main Protease (SARS-CoV-2); conditions: 20.0 µM
Property measured: inhibition (%)

{"Mol": "O=C(CSC1=NCCS1)c1cc(Cl)ccc1Cl", "Property measured": "inhibition", "Numeric readout": 5.24}
{"Mol": "O=C(Cc1ccsc1)N1CCN(c2cc(-c3cccs3)n[nH]2)CC1", "Property measured": "inhibition", "Numeric readout": 13.1}
{"Mol": "O=C(Cc1cccc(Cl)c1)Nn1cnc2ccccc21", "Property measured": "inhibition", "Numeric readout": 74.2}
{"Mol": "COc1cccc(NC(=O)Nc2cccc(C#N)c2)c1", "Property measured": "inhibition", "Numeric readout": 5.11}

###

The following compounds are listed with their measured relative solubility at 100 uM values.
conditions: 100.0 µM

{"Compound": "COc1ccc(C(=O)Nc2cccc(/C=C3/C(=O)NC(=O)c4ccccc43)c2)cc1", "relative solubility at 100 uM": 0.54}
{"Compound": "CC(NC(=O)CCl)c1cc(Cl)cc(-c2ccc(S(N)(=O)=O)cc2)c1 (centres undefined)", "relative solubility at 100 uM": 0.99}
{"Compound": "COC(=O)C(c1ccccc1Cl)N1CCc2sccc2C1 (centres undefined)", "relative solubility at 100 uM": 0.79}
{"Compound": "CN1C(=O)/C(=N\\NC(=O)c2ccc3c(c2)OCO3)c2ccccc21", "relative solubility at 100 uM": 0.75}

###

conditions: 100.0 µM
Property measured: relative solubility at 100 uM

{"Molecule": "Cc1noc(C)c1NC(=O)Cc1cccc(Cl)c1Cl", "Numeric readout": 1}
{"Molecule": "O=C(CCl)N1CCOc2cccc(-c3cccnc3)c21", "Numeric readout": 1}
{"Molecule": "C=CC(=O)N(c1ccc(C(C)(C)CC)cc1)C(C(=O)Nc1ccc(Cl)cc1)c1cccnc1 (centres undefined)", "Numeric readout": 0.68}
{"Molecule": "Nc1ncncc1CNC(=O)Nc1ccccc1OCCn1ccnc1", "Numeric readout": 1}
{"Molecule": "O=C(NCCNc1cccnn1)c1ccccc1NS(=O)(=O)c1cc(F)ccc1F", "Numeric readout": 1}
{"Molecule": "O=C(NCc1noc2ccccc12)c1ccccc1OCC1CC1", "Numeric readout": 0.64}
{"Molecule": "Cc1ccncc1NC(=O)[C@@H]1CNC(=O)O1 (stereo in doubt)", "Numeric readout": 1}
{"Molecule": "O=C(NCCOc1ccccc1)c1cc(=O)[nH]c2ccccc12", "Numeric readout": 1}
{"Molecule": "O=C(CC(=O)N1CCOCC1)Nc1ccccc1", "Numeric readout": 1.01}
{"Molecule": "CS(=O)(=O)Nc1cccc(C(=O)OCC(=O)Nc2cccc(N3CCCC3=O)c2)c1", "Numeric readout": 0.99}
{"Molecule": "O=C(Cc1cccc(Cl)c1)Nc1nncs1", "Numeric readout": 0.78}
{"Molecule": "Nc1nnnn1-c1cccc(C(=O)Nc2c(-c3cccnc3)nc3ccccn23)c1", "Numeric readout": 0.79}
{"Molecule": "NS(=O)(=O)c1ccc(N2CCC(CN3CCCCC3)CC2)cc1", "Numeric readout": 1.01}
{"Molecule": "CCN(Cc1cccc(-c2ccncc2)c1)C(=O)Cc1noc2ccccc12", "Numeric readout": 0.85}
{"Molecule": "CCOc1ccccc1/C=C1/C(=O)NC(=O)c2ccccc21", "Numeric readout": 0.68}
{"Molecule": "C=CC(=O)N(c1ccc(C(C)(C)C)cc1)C(C(=O)NCCOC)c1cccnc1 (centres undefined)", "Numeric readout": 1}
{"Molecule": "O=C(NCc1coc2ccccc12)C1CCc2nnc(-c3ccc(O)cc3)n2C1 (centres undefined)", "Numeric readout": 0.94}
{"Molecule": "O=C(NCc1cnn2ccccc12)c1cccnc1OCCO", "Numeric readout": 1.01}
{"Molecule": "C=CC(=O)N(c1ccc(C(C)(C)C)cc1)C(C(=O)NC(C)(C)C)c1cncc(Cl)c1 (centres undefined)", "Numeric readout": 0.86}
{"Molecule": "C=CC(=O)N1CCN(Cc2cccc3ccccc23)CC1", "Numeric readout": 0.99}
{"Molecule": "C=CC(=O)N(c1ccc(C(C)(C)C)cc1)C(C(=O)NC(C)(C)C)c1cccnc1 (centres undefined)", "Numeric readout": 0.89}
{"Molecule": "C=CC(=O)N1CC(NCC2=CNC3C=CC(C#N)=CC23)C1 (centres undefined)", "Numeric readout": 0.95}
{"Molecule": "CS(=O)(=O)NCCCN1CCCc2ccc(S(N)(=O)=O)cc21", "Numeric readout": 1}
{"Molecule": "COC1(CC(=O)Nc2cnccc2C)CC1", "Numeric readout": 1}
{"Molecule": "C=CC(=O)N(c1ccc(C2(C)CC2)cc1)C(C(=O)Nc1ccc(Cl)cc1)c1cccnc1 (centres undefined)", "Numeric readout": 0.56}
{"Molecule": "C=CC(=O)NCc1ccc(C(C)NC(=O)OC(C)(C)C)cc1 (centres undefined)", "Numeric readout": 1.01}
{"Molecule": "COCC1CCN(c2ccc(S(N)(=O)=O)cc2)CC1", "Numeric readout": 1}
{"Molecule": "C=CC(=O)N(c1ccc(C(C)(C)C)cc1)C(C(=O)NCCc1cccc(F)c1)c1cncc(C#N)c1 (centres undefined)", "Numeric readout": 0.46}
{"Molecule": "CC(=O)N[C@@H](Cc1ccc(O)cc1)C(=O)NCc1ccc(Br)cc1 (stereo in doubt)", "Numeric readout": 0.99}

###

target: SARS-CoV-2 Main Protease (SARS-CoV-2) (UniProt P0DTD1); conditions: 20.0 µM
The following compounds are listed with their measured inhibition values.
Property measured: inhibition (%)

{"Compound": "Cc1[nH]c2ccccc2c1/C=N/N(C)C(=O)c1ccc2c(c1)OCO2", "Study target": "SARS-CoV-2 Main Protease (SARS-CoV-2) (UniProt P0DTD1)", "Unit string": "%", "Numeric readout": 2.2}
{"Compound": "O=C(CCl)N1CCN(Cc2cc(Cl)cc(Cl)c2)CC1", "Study target": "SARS-CoV-2 Main Protease (SARS-CoV-2) (UniProt P0DTD1)", "Unit string": "%", "Numeric readout": 76.9}
{"Compound": "Cc1ncncc1NC(=O)C(c1cccc(Cl)c1)C(C)C (stereo not drawn)", "Study target": "SARS-CoV-2 Main Protease (SARS-CoV-2) (UniProt P0DTD1)", "Unit string": "%", "Numeric readout": 3.52}

###

conditions: 100.0 µM
Property measured: relative solubility at 100 uM

{"Compound": "C=CC(=O)N(c1ccc(C(F)(F)F)cc1)C(C(=O)Nc1ccc(OC)cc1C)c1cccnc1 (centres undefined)", "Property measured": "relative solubility at 100 uM", "Result": 0.62}
{"Compound": "C=CC(=O)N(c1ccc(C(C)(C)C)cc1)C(C(=O)NCC)c1cccnc1 (centres undefined)", "Property measured": "relative solubility at 100 uM", "Result": 1}
{"Compound": "C=CC(=O)N(c1ccc2ncsc2c1)C(C(=O)Nc1ccc(Br)cc1)c1cccnc1 (centres undefined)", "Property measured": "relative solubility at 100 uM", "Result": 0.64}
{"Compound": "C=CC(=O)N(c1ccc2cc[nH]c2c1)C(C(=O)NC(C)(C)C)c1cccnc1 (centres undefined)", "Property measured": "relative solubility at 100 uM", "Result": 0.93}
{"Compound": "O=C(CCl)N1CCN(C2(c3cccc(Cl)c3)CC2)CC1", "Property measured": "relative solubility at 100 uM", "Result": 0.99}
{"Compound": "C=CC(=O)N(c1ccc(C(C)(C)C)cc1)C(C(=O)NC(C)(C)C)c1cncc(Br)c1C (centres undefined)", "Property measured": "relative solubility at 100 uM", "Result": 0.92}
{"Compound": "CN(CC1COc2ccccc2O1)C(=O)c1cc(=O)[nH]c2ccc(F)cc12 (centres undefined)", "Property measured": "relative solubility at 100 uM", "Result": 0.99}
{"Compound": "O=C(Cc1c[nH]c2ncccc12)NCc1cc(Cl)ccn1", "Property measured": "relative solubility at 100 uM", "Result": 0.98}
{"Compound": "N#Cc1cccc(CNc2ccc(O)cc2)c1", "Property measured": "relative solubility at 100 uM", "Result": 1}
{"Compound": "O=C(CCl)N1CCN(Cc2cc(Cl)cc(Cl)c2)CC1", "Property measured": "relative solubility at 100 uM", "Result": 1}
{"Compound": "CC1(C)Cc2cccc(OCCNC(=O)c3cc(=O)[nH]c4ccc(Cl)cc34)c2O1", "Property measured": "relative solubility at 100 uM", "Result": 0.91}
{"Compound": "O=C1Nc2c(Br)cccc2C1=O", "Property measured": "relative solubility at 100 uM", "Result": 0.81}
{"Compound": "Cc1ccc(C)c(N(C)C(=O)Cc2cnn(C)c2C)c1", "Property measured": "relative solubility at 100 uM", "Result": 0.98}
{"Compound": "O=C(Nc1cccnc1)Nc1cccc(Cl)c1", "Property measured": "relative solubility at 100 uM", "Result": 0.99}

Data provenance: the COVID Moonshot data (paper PMC11187573)
